Entries and their MIC values follow.
# Test system: Candida albicans
# assay: Antifungal activity against Candida albicans MY1055 after 20 hrs by twofold serial broth dilution method
# Type: functional
# appliedConditions: MY1055, 20 h

compound="CC[C@H]1OC(=O)[C@H](C)[C@@H](O[C@H]2C[C@@](C)(OC)[C@@H](O)[C@H](C)O2)[C@H](C)[C@@H](O[C@@H]2O[C@H](C)C[C@H](N(C)C)[C@H]2O)[C@](C)(O)C[C@@H](C)C(=O)[C@H](C)[C@@H](O)[C@]1(C)O [ERYTHROMYCIN]" endpointvalue="> 32 µg/mL"

Next compound, please.
Input: # lookup: MIC of C=C(NC(=O)c1csc(-c2nc3c(cc2O)-c2nc(cs2)C(=O)N[C@@H]([C@@H](C)O)C(=O)N/C(=C(\C)OC)c2nc(cs2)C(=O)N[C@@H]2c4nc(cs4)C(=O)N[C@@H](COC(=O)c4[nH]c5cccc6c5c4CO[C@@H]2[C@H](O[C@H]2C[C@](C)(O)[C@@H](O)[C@H](C)O2)C(=O)OC6)c2nc-3cs2)n1)C(N)=O [THIAZOMYCIN D]
Output: > 32 µg/mL
